These entries and their values trace back to PubChem BioAssay.

# Assay procedure: COS7 lysate on small-molecule microarray, probe aHis, 635 nm (AID 1123);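 also: z-score combines 667nm fluorescence intensity with signal-to-noise per printed compound spot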
# Details: COS7 cell lysate, fluorescence, higher = more signal
Each entry below lists one item and its recorded composite z-score value.

Compound	composite z-score
COc1ccc([Si](C)(C)[C@H]2[C@H](CC(=O)N3Cc4ccccc4C[C@H]3CO)O[C@@]3(C(=O)N(Cc4ccc(N5C(=O)c6cccc7cccc5c67)cc4)c4ccccc43)[C@@H]2C)cc1	0.822
[N-]=[N+]=NCc1ccccc1[C@@H]1OC(c2ccc(OCCCO)cc2)=N[C@]1(Cc1ccccc1N=[N+]=[N-])C(=O)N1CCCCC1	2.57
CC(C)CCC[C@@H](C)[C@H]1CC[C@@]2(C)C3=C(CC[C@]12C)[C@@]1(C)CC[C@H](OC(=O)c2ccccc2)C(C)(C)C1CC3 (stereo partly drawn)	0.275
COCC(=C=CC[C@@H](O)c1cccc(OCCO)c1)CCO	0.562
CN(C)C(=O)[C@@]1(Cc2ccccc2)COC(c2ccc(OCCCO)cc2)=N1	2.86
COc1cc2c(cc1O)C(c1cccs1)N(Cc1sc3ccccc3c1Cl)CC2 (stereo not drawn)	2.04
CC(C)C(=C=CC[C@@H](O)c1cccc(OCCO)c1)C[C@@H](O)c1ccccn1	-0.293
C=CCOC(=O)[C@H]1[C@@H]2C(=O)O[C@@H](c3ccccc3)[C@@H](c3ccccc3)N2[C@@H](c2ccc(OCCOC(=O)[C@H]3C[C@H]4C(=O)N[C@@H](CCCCNC(C)=O)C(=O)N4[C@H]3c3cccc(OCCO)c3)cc2)[C@]12C(=O)Nc1ccc(I)cc12	1.47
COC(=O)[C@@]1(Cc2ccc(F)cc2)[C@H]2c3cc(C(=O)N4CCCC4)n(C)c3C[C@H]2CN1C(=O)c1ccccc1	3.32
COC(=O)[C@@]1(Cc2ccc(F)cc2)[C@H]2c3cc(C(=O)N(C)C)n(Cc4ccc(O)c(OC)c4)c3C[C@H]2CN1C(=O)c1ccccc1	1.08
COC(=O)C(CC#Cc1ccc2c(c1)[C@]1(C(=O)N2)[C@H](c2ccc(O)cc2)N2[C@H](c3ccccc3)[C@H](c3ccccc3)OC(=O)[C@H]2[C@@H]1C(=O)N1CCCCCCC1)C(=O)OC	2.46
COc1cc(C(O)C2C=CC3C(=O)N(Cc4ccccc4)C(=O)C3N2n2cnnc2)cc(OC)c1OC (stereo not drawn)	1.1
C=C(/C(=C/C[C@H](OC(=O)c1ccncc1)c1ccccc1OCCO)c1cnc2ccccc2c1)C(C)C	0.443
CN1C(=O)C2C=CC(C(O)c3ccc(I)cc3)N(Nc3ccccc3)C2C1=O (stereo not drawn)	1.91
O=C1C2C=CC(C(O)c3cc(C(F)(F)F)cc(C(F)(F)F)c3)N(Nc3ccccc3F)C2C(=O)N1c1ccccc1 (stereo not drawn)	2.86
CC(=O)n1cc(C(O)C2C=CC3C(=O)N(c4ccccc4)C(=O)C3N2Nc2ccc(C(C)C)cc2)c2ccccc21 (stereo not drawn)	2.87
C=C(/C(=C/C[C@@H](OC(C)=O)c1ccc(CO)o1)c1cc(C(=O)OC)ccc1OC)C(C)C	1.31
CC(C)C(=C=CC[C@@H](O)c1cccc(OCCO)c1)C[C@@H](O)COCc1ccccc1	0.75
CCOC(=O)C[C@H]1[C@H](OC(=O)c2ccc(-c3ccccc3)cc2)[C@@H](NC(=O)Cc2ccc(OC)cc2)c2cc(OCCCO)ccc2N1C(=O)Cc1ccc(OC)cc1	0.584
COCCOC(=O)N1C(=O)[C@@]2(c3cc(C#CC4(O)CCCCCC4)ccc31)[C@H](C(=O)N1CCN(c3ncccn3)CC1)[C@H]1C(=O)O[C@H](c3ccccc3)[C@H](c3ccccc3)N1[C@@H]2c1ccccc1OCCO	0.506
C=CC1c2cc(O)c(OC)cc2CCN1Cc1ccc([N+](=O)[O-])o1 (stereo not drawn)	2.05
C=C/C=C/[C@@H]1C(=C)CN([C@@H](Cc2ccccc2)C(=O)OC)[C@H]1[C@@H](O)Cc1ccccc1	1.07
C=CCC(OC(C)=O)[C@@H]1[C@@H](N(Cc2cccc3ccccc23)C(=O)Cc2ccc(F)cc2)c2cc(OCCCO)ccc2N1C(=O)c1ccc(-c2ccccc2)cc1 (stereo partly drawn)	0.644
CCOC(=O)C1=CCC(c2ccccc2)N(S(=O)(=O)c2ccc([N+](=O)[O-])cc2)C1 (stereo not drawn)	1.07
CN1C(=O)C2C=CC(C(O)c3cc(C(F)(F)F)cc(C(F)(F)F)c3)N(NC(=O)OC(C)(C)C)C2C1=O (stereo not drawn)	2.87
COC(=O)c1c2oc(c1C(=O)OC)C(=O)N1CCC[C@H]1Cn1nncc1CN(Cc1ccccc1)C(=O)N[C@H](CO)CC2	0.214
CCCNC(=O)[C@@]1(Sc2ccc(C)cc2)CC(=O)N(C(C)C)[C@@H]1c1ccc(CO)cc1I	1.22
COCCOC(=O)N1C(=O)[C@@]2(c3ccccc31)[C@H](c1ccccc1OCCO)N1[C@H](c3ccccc3)[C@H](c3ccccc3)OC(=O)[C@H]1[C@@H]2C(N)=O	2.36
